Each recorded value in this set is attributed to ChEMBL document CHEMBL1201862.

- Test system: MDA-N
- protocol: NCI tumour cell line growth inhibition, 48 h
Activity calls are given as the source filed them. No stated cut-off is given here; in the data, active = GI50 up to about 1.1 µM and inactive = higher.
The reply should name one outcome from Y for active, N for inactive

# count of solved cases: 6
CSC12c3cc(C)n(-c4ccc([N+](=O)[O-])cc4)c3CC(C)(C)CN1C(=O)C2Oc1ccccc1 (stereo not given)    N
C/C(=N\Nc1nc2ccccc2o1)c1cc(C)ncn1    N
CC(=O)NC1(C)C(C)C2CC1C(C)C2(C)C (stereo not given)    N
COc1cc(/C=C2/Oc3c(OC)cccc3C2=O)ccc1O    N
O=C1CCC2(CC1CC[S+]([O-])c1ccccc1)OCCO2 (stereo not given)    N
CCCC(=O)Nc1cc(/C=C/C(=O)N2CC(CCl)c3c2cc(OC(C)=O)c2[nH]cc(C)c32)n(C)c1 (stereo not given)    Y

Query string: Please let me know the test result on file for C[N+](C)(C)CC1CCCC(C[N+](C)(C)C)C1=O (stereo not given) .
Result string: N

Query string: Assay result, entry `SCc1ccc(CS)s1` — outcome?
Result string: N

Query string: Check the results log: what was the call for Cc1cc2c(c(=O)o1)C1=S(SC(c3ccccc3)=C1)S2 (stereo not given) ?
Result string: N

Query string: Record lookup: outcome of this test for CC(=O)OCC1OC(O[C@@H]2c3c(O)c4c(c(O)c3C3=C(NN(c5ccc([N+](=O)[O-])cc5[N+](=O)[O-])[Se]3=O)[C@@]2(C)O)C(=O)c2ccccc2C4=O)C(OC(C)=O)C(OC(C)=O)C1OC(C)=O (stereo not given in full) ?
Result string: Y
